test system: Hep-2 cell line; experiment: solid tumor cell growth inhibition, MTT; type: cell-based; conditions: Homo sapiens, HEp-2, 72 h
OUTCOME_MEASURE: IC50

Examples from the recorded data:
>>> recorded_value("CCN(CC)CCNC(=O)C1C[C@@]2(C)C(CC[C@]3(C)C2CC=C2C4CC(C)(C)CC[C@]4(C(=O)O)CC[C@]23C)C(C)(C)C1=O (stereo partly drawn)")
"> 16 µg/mL"
>>> recorded_value("COC(=O)[C@]12CCC(C)(C)CC1C1=CCC3[C@@]4(C)CC(C(=O)NCCCN5CCOCC5)C(=O)C(C)(C)C4CC[C@@]3(C)[C@]1(C)CC2 (stereo partly drawn)")
"> 16 µg/mL"
>>> recorded_value("COC(=O)[C@]12CCC(C)(C)C[C@H]1C1=CC[C@@H]3[C@@]4(C)CC(C(=O)NCC5CC5)C(=O)C(C)(C)[C@@H]4CC[C@@]3(C)[C@]1(C)CC2 (stereo partly drawn)")
"> 16 µg/mL"
>>> recorded_value("COC(=O)[C@]12CCC(C)(C)CC1C1=CCC3[C@@]4(C)CC(C(=O)NCCC(C)C)C(=O)C(C)(C)C4CC[C@@]3(C)[C@]1(C)CC2 (stereo partly drawn)")
"> 16 µg/mL"
>>> recorded_value("CCOCCNC(=O)C1C[C@@]2(C)C(CC[C@]3(C)C2CC=C2C4CC(C)(C)CC[C@]4(C(=O)OC)CC[C@]23C)C(C)(C)C1=O (stereo partly drawn)")
"> 16 µg/mL"

Consider the record given below.
Query string: Given the entry COC(=O)[C@]12CCC(C)(C)CC1C1=CCC3[C@@]4(C)CC(C(=O)NCCCN5CCN(C)CC5)C(=O)C(C)(C)C4CC[C@@]3(C)[C@]1(C)CC2 (stereo partly drawn) , report its measured IC50.
Result string: 8.25 µg/mL

====

Consider the following compounds and their measured IC50 readings.
system: PC-3 cell line; experiment: solid tumor cell growth inhibition, MTT; format: cell-based; details: Homo sapiens, PC-3, 72 h

Sample records with IC50:
>>> recorded_value("COC(=O)[C@]12CCC(C)(C)CC1C1=CCC3[C@@]4(C)CC(C(=O)NCCc5cccnc5)C(=O)C(C)(C)C4CC[C@@]3(C)[C@]1(C)CC2 (stereo partly drawn)")
"7.79 µg/mL"
>>> recorded_value("CCN(CC)CCNC(=O)C1C[C@@]2(C)C(CC[C@]3(C)C2CC=C2C4CC(C)(C)CC[C@]4(C(=O)O)CC[C@]23C)C(C)(C)C1=O (stereo partly drawn)")
"> 16 µg/mL"
>>> recorded_value("CN(C)CCCNC(=O)C1C[C@@]2(C)C(CC[C@]3(C)C2CC=C2C4CC(C)(C)CC[C@]4(C(=O)O)CC[C@]23C)C(C)(C)C1=O (stereo partly drawn)")
"> 16 µg/mL"
>>> recorded_value("COC(=O)[C@]12CCC(C)(C)CC1C1=CCC3[C@@]4(C)CC(C(=O)NCCC(C)C)C(=O)C(C)(C)C4CC[C@@]3(C)[C@]1(C)CC2 (stereo partly drawn)")
"> 16 µg/mL"
>>> recorded_value("COCCCNC(=O)C1C[C@]2(C)[C@H]3CC=C4[C@@H]5CC(C)(C)CC[C@]5(C(=O)OC)CC[C@@]4(C)[C@]3(C)CC[C@H]2C(C)(C)C1=O (stereo partly drawn)")
"> 16 µg/mL"
>>> recorded_value("CCN(CC)CCCNC(=O)C1C[C@]2(C)[C@H]3CC=C4[C@@H]5CC(C)(C)CC[C@]5(C(=O)OC)CC[C@@]4(C)[C@]3(C)CC[C@H]2C(C)(C)C1=O (stereo partly drawn)")
"5 µg/mL"
>>> recorded_value("COC(=O)[C@]12CCC(C)(C)CC1C1=CCC3[C@@]4(C)CC(C(=O)NCCN5CCCC5)C(=O)C(C)(C)C4CC[C@@]3(C)[C@]1(C)CC2 (stereo partly drawn)")
"5.11 µg/mL"
>>> recorded_value("COC(=O)[C@]12CCC(C)(C)CC1C1=CCC3[C@@]4(C)CC(C(=O)NCCc5ccccn5)C(=O)C(C)(C)C4CC[C@@]3(C)[C@]1(C)CC2 (stereo partly drawn)")
"> 16 µg/mL"

Query string: GET /values?readout=IC50&item= CCC(C)CNC(=O)C1C[C@@]2(C)C(CC[C@]3(C)C2CC=C2C4CC(C)(C)CC[C@]4(C(=O)OC)CC[C@]23C)C(C)(C)C1=O (stereo partly drawn)
Result string: > 16 µg/mL

Query string: What value of IC50 has been recorded for this entry: CCOCCNC(=O)C1C[C@@]2(C)C(CC[C@]3(C)C2CC=C2C4CC(C)(C)CC[C@]4(C(=O)OC)CC[C@]23C)C(C)(C)C1=O (stereo partly drawn)
Result string: > 16 µg/mL

Query string: Looking for the measured IC50 of CC1(C)CC[C@]2(C(=O)O)CC[C@]3(C)C(=CC[C@@H]4[C@@]5(C)CC(C(=O)NCCN6CCCC6)C(=O)C(C)(C)[C@@H]5CC[C@]43C)[C@@H]2C1 (stereo partly drawn) , can you help?
Result string: > 16 µg/mL

Query string: // lookup IC50 for CC1(C)CC[C@]2(C(=O)O)CC[C@]3(C)C(=CC[C@@H]4[C@@]5(C)CC[C@H](O)C(C)(C)[C@@H]5CC[C@]43C)[C@@H]2C1
Result string: > 16 µg/mL

====

System: PANC-1 cell line
Experiment: solid tumor cell growth inhibition, MTT
Assay type: cell-based
Details: Homo sapiens; PANC-1, 16 μg/mL compound, 72 h; read-out: IR (cell proliferation inhibition rate)
Protocol: […] Obtaining 4000 well-growing human solid tumor cells and inoculating them into wells of a 96-well cell culture plate. […] Then the relative number of the living cells is determined by MTT method. […]
Overview of recorded inhibition at 16 µg/mL for various compounds
Lab book: enter the figure in %, no units written.

Query string: Which measured inhibition at 16 µg/mL value corresponds to CC1(C)CC[C@]2(C(=O)O)CC[C@]3(C)C(=CC[C@@H]4[C@@]5(C)CC(C(=O)NCCN6CCCC6)C(=O)C(C)(C)[C@@H]5CC[C@]43C)[C@@H]2C1 (stereo partly drawn) ?
Result string: 16.9

Query string: Can you share its inhibition at 16 µg/mL? I mean this compound: CCN(CC)CCCNC(=O)C1C[C@@]2(C)C(CC[C@]3(C)C2CC=C2C4CC(C)(C)CC[C@]4(C(=O)O)CC[C@]23C)C(C)(C)C1=O (stereo partly drawn)
Result string: 21.6

Query string: What value of inhibition at 16 µg/mL has been reported for the following compound? COC(=O)[C@]12CCC(C)(C)CC1C1=CCC3[C@@]4(C)CC(C(=O)NCCN5CCCC5)C(=O)C(C)(C)C4CC[C@@]3(C)[C@]1(C)CC2 (stereo partly drawn)
Result string: 97.8

Query string: // lookup inhibition at 16 µg/mL for COC(=O)[C@]12CCC(C)(C)CC1C1=CCC3[C@@]4(C)CC(C(=O)NCCC(C)C)C(=O)C(C)(C)C4CC[C@@]3(C)[C@]1(C)CC2 (stereo partly drawn)
Result string: -1.4

Query string: Requested field: inhibition at 16 µg/mL. Item: COC(=O)[C@]12CCC(C)(C)C[C@H]1C1=CC[C@@H]3[C@@]4(C)CC(C(=O)NCCN5CCOCC5)C(=O)C(C)(C)[C@@H]4CC[C@@]3(C)[C@]1(C)CC2 (stereo partly drawn)
Result string: 10.4

Query string: Need inhibition at 16 µg/mL of COC(=O)[C@]12CCC(C)(C)CC1C1=CCC3[C@@]4(C)CC(C(=O)NCCCN5CCCC5)C(=O)C(C)(C)C4CC[C@@]3(C)[C@]1(C)CC2 (stereo partly drawn) , thanks.
Result string: 98.5

====

Recorded IC50, one value per entry.
test system: Jurkat cell line; assay: leukemia cell growth inhibition, MTT; type: cell-based; conditions: Homo sapiens, 72 h

Worked examples, 2 compounds total:
>>> recorded_value("CC1(C)CC[C@]2(C(=O)O)CC[C@]3(C)C(=CC[C@@H]4[C@@]5(C)CC(C(=O)NCCN6CCCC6)C(=O)C(C)(C)[C@@H]5CC[C@]43C)[C@@H]2C1 (stereo partly drawn) [BS-OA-105]")
"> 16 mg/L"
>>> recorded_value("COC(=O)[C@]12CCC(C)(C)CC1C1=CCC3[C@@]4(C)CC(C(=O)NCCC(C)C)C(=O)C(C)(C)C4CC[C@@]3(C)[C@]1(C)CC2 (stereo partly drawn) [BS-OA-031]")
"> 16 mg/L"

Now take the following compound into account.
Query string: Sample CC1(C)CC[C@]2(C(=O)O)CC[C@]3(C)C(=CC[C@@H]4[C@@]5(C)CC[C@H](O)C(C)(C)[C@@H]5CC[C@]43C)[C@@H]2C1 [OA, Oleanolic acid] — what was its IC50?
Result string: > 16 mg/L

====

test system: Kasumi-1 cell line; test: leukemia cell growth inhibition, MTT; assay type: cell-based; settings: Homo sapiens; Kasumi-1, 16 μg/mL compound, 72 h; read-out: IR (cell proliferation inhibition rate)
# binarize inhibition at 16 µg/mL: threshold 50% inclusive, high side TRUE, low side FALSE

Past entries and their recorded results:
>>> assigned_category("CCC(C)CNC(=O)C1C[C@@]2(C)C(CC[C@]3(C)C2CC=C2C4CC(C)(C)CC[C@]4(C(=O)OC)CC[C@]23C)C(C)(C)C1=O (stereo partly drawn)")
"FALSE"
>>> assigned_category("COC(=O)[C@]12CCC(C)(C)C[C@H]1C1=CC[C@@H]3[C@@]4(C)CC(C(=O)NCCN5CCCCC5)C(=O)C(C)(C)[C@@H]4CC[C@@]3(C)[C@]1(C)CC2 (stereo partly drawn)")
"TRUE"
>>> assigned_category("CCOCCNC(=O)C1C[C@@]2(C)C(CC[C@]3(C)C2CC=C2C4CC(C)(C)CC[C@]4(C(=O)OC)CC[C@]23C)C(C)(C)C1=O (stereo partly drawn)")
"FALSE"
>>> assigned_category("CN(C)CCCNC(=O)C1C[C@@]2(C)C(CC[C@]3(C)C2CC=C2C4CC(C)(C)CC[C@]4(C(=O)O)CC[C@]23C)C(C)(C)C1=O (stereo partly drawn)")
"FALSE"

Query string: Could you please find out whether COC(=O)[C@]12CCC(C)(C)CC1C1=CCC3[C@@]4(C)CC(C(=O)NCCCN5CCOCC5)C(=O)C(C)(C)C4CC[C@@]3(C)[C@]1(C)CC2 (stereo partly drawn) has inhibition at 16 µg/mL that meets 50% or exceeds it?
Result string: TRUE
